Assay: Approximate solubility of solid state Form V at 25° C. and 50° C. (visual observation)
Format: physicochemical
Conditions: thermodynamic from solid, SL1 Water, 50° C.
Measurement Kind: solubility at 10 min

Challenge: Entry Nc1nc(=O)n(-c2ccccc2Cl)c2nc(C(F)(F)F)ccc12 [solid state Form V] : reported solubility at 10 min = ?
Response given: < 5000 µg/mL

====

Experiment: Equilibrium solubility in FeSSIF and FaSSIF
Assay type: physicochemical
Details: FaSSIF, pH 6.5, 37° C., 24 hours, target concentration 1 mg/mL, HPLC method 1 or 2 (footnote)
Measurement Kind: Solubility (µg/mL)
Return type: number; implicit unit µg/mL.

Below: 4 compounds and their reported Solubility.
{"Compound": "Nc1nc(=O)n(-c2ccccc2Cl)c2nc(C(F)(F)F)ccc12 [substantially amorphous form]", "Quantity Unit": "µg/mL", "Solubility": 120}
{"Compound": "Nc1nc(=O)n(-c2ccccc2Cl)c2nc(C(F)(F)F)ccc12 [Form C]", "Quantity Unit": "µg/mL", "Solubility": 60}
{"Compound": "Nc1nc(=O)n(-c2ccccc2Cl)c2nc(C(F)(F)F)ccc12 [Form T]", "Quantity Unit": "µg/mL", "Solubility": 80}
{"Compound": "Nc1nc(=O)n(-c2ccccc2Cl)c2nc(C(F)(F)F)ccc12 [solid state Form V]", "Quantity Unit": "µg/mL", "Solubility": 100}

// moving on: another record for Solubility
Challenge: Entry Nc1nc(=O)n(-c2ccccc2Cl)c2nc(C(F)(F)F)ccc12 [Form D] : reported Solubility = ?
Response given: 90

====

Experiment: Approximate solubility of solid state Form V at 25° C. and 50° C. (visual observation)
Type: physicochemical
Settings: organic solvent or mixture, thermodynamic from solid, SL8 Methyl ethyl ketone, 50° C.
Measurement Kind: solubility at 10 min

Challenge: Entry Nc1nc(=O)n(-c2ccccc2Cl)c2nc(C(F)(F)F)ccc12 [solid state Form V] : reported solubility at 10 min = ?
Response given: < 5000 µg/mL

====

Assay: Equilibrium solubility in SGF (pH 2.0), 0.1 N HCl (pH 1.2) and phosphate buffer (pH 8.0)
Assay type: physicochemical
Details: simulated gastric fluid (SGF), 37 °C, pH 2, simulated gastric fluid, thermodynamic from solid, SGF, pH 2.0, 37° C., 24 hours, target concentration 1 mg/mL, HPLC method 2
Measurement Kind: solubility at 24 h (µg/mL)
Return type: number; implicit unit µg/mL.

Challenge: Entry Nc1nc(=O)n(-c2ccccc2Cl)c2nc(C(F)(F)F)ccc12 [solid state Form V] : reported solubility at 24 h = ?
Response given: 70

====

Experiment: Bulk stability of crystalline forms
Assay type: physicochemical
Details: Solid state, 40° C./75% RH, open container, 2 weeks
Measurement Kind: Purity, Bulk (HPLC) (%)
Return type: number; implicit unit %.

{"Compound": "Nc1nc(=O)n(-c2ccccc2Cl)c2nc(C(F)(F)F)ccc12 [Form A]", "Recorded Number": 99.1}
{"Compound": "Nc1nc(=O)n(-c2ccccc2Cl)c2nc(C(F)(F)F)ccc12 [Form D]", "Recorded Number": 98.2}
{"Compound": "Nc1nc(=O)n(-c2ccccc2Cl)c2nc(C(F)(F)F)ccc12 [Form T]", "Recorded Number": 98.7}
{"Compound": "Nc1nc(=O)n(-c2ccccc2Cl)c2nc(C(F)(F)F)ccc12 [solid state Form V]", "Recorded Number": 98.7}

// moving on: another record for Purity, Bulk (HPLC)
Challenge: Entry Nc1nc(=O)n(-c2ccccc2Cl)c2nc(C(F)(F)F)ccc12 [substantially amorphous form] : reported Purity, Bulk (HPLC) = ?
Response given: 96.1

====

Test: Approximate solubility of solid state Form V at 25° C. and 50° C. (visual observation)
Assay type: physicochemical
Conditions: organic solvent or mixture, thermodynamic from solid, SL6 Isopropyl acetate, 25° C.
Measurement Kind: solubility at 10 min

Challenge: Entry Nc1nc(=O)n(-c2ccccc2Cl)c2nc(C(F)(F)F)ccc12 [solid state Form V] : reported solubility at 10 min = ?
Response given: < 5000 µg/mL

====

Reported values of final pH for individual entries
Test: Equilibrium solubility in FeSSIF and FaSSIF
Type: physicochemical
Details: FeSSIF, pH 5.0, 37° C., 24 hours
Could you respond with only the numeric value?

Challenge: Entry Nc1nc(=O)n(-c2ccccc2Cl)c2nc(C(F)(F)F)ccc12 [substantially amorphous form] : reported final pH = ?
Response given: 5.0

Challenge: Entry Nc1nc(=O)n(-c2ccccc2Cl)c2nc(C(F)(F)F)ccc12 [Form F] : reported final pH = ?
Response given: 5.0

Challenge: Entry Nc1nc(=O)n(-c2ccccc2Cl)c2nc(C(F)(F)F)ccc12 [solid state Form V] : reported final pH = ?
Response given: 5.0

Challenge: Entry Nc1nc(=O)n(-c2ccccc2Cl)c2nc(C(F)(F)F)ccc12 [Form E] : reported final pH = ?
Response given: 5.2

Challenge: Entry Nc1nc(=O)n(-c2ccccc2Cl)c2nc(C(F)(F)F)ccc12 [Form A] : reported final pH = ?
Response given: 5.0

====

Experiment: Bulk stability of crystalline forms
Format: physicochemical
Settings: Solid state, 40° C./75% RH, open container, 1 week
Measurement Kind: Purity, Bulk (HPLC) (%)
Return type: number; implicit unit %.

{"Compound": "Nc1nc(=O)n(-c2ccccc2Cl)c2nc(C(F)(F)F)ccc12 [substantially amorphous form]", "Recorded Number": 97.5}
{"Compound": "Nc1nc(=O)n(-c2ccccc2Cl)c2nc(C(F)(F)F)ccc12 [Form T]", "Recorded Number": 98.9}
{"Compound": "Nc1nc(=O)n(-c2ccccc2Cl)c2nc(C(F)(F)F)ccc12 [Form D]", "Recorded Number": 98.1}
{"Compound": "Nc1nc(=O)n(-c2ccccc2Cl)c2nc(C(F)(F)F)ccc12 [Form A]", "Recorded Number": 99.0}

Challenge: Entry Nc1nc(=O)n(-c2ccccc2Cl)c2nc(C(F)(F)F)ccc12 [solid state Form V] : reported Purity, Bulk (HPLC) = ?
Response given: 98.9

====

Assay: Intrinsic dissolution rate (IDR) evaluation in FaSSIF
Type: physicochemical
Conditions: FaSSIF at 37° C.; for Form V and Form A remains same during the whole process; LOQ for Form T and amorphous form
Measurement Kind: Concentration detected during IDR test (Comments)

{"Molecule": "Nc1nc(=O)n(-c2ccccc2Cl)c2nc(C(F)(F)F)ccc12 [Form A]", "Result": "(0.006 mg/mL)"}
{"Molecule": "Nc1nc(=O)n(-c2ccccc2Cl)c2nc(C(F)(F)F)ccc12 [solid state Form V]", "Result": "(0.006 mg/mL)"}

====

Assay: Approximate solubility of solid state Form V at 25° C. and 50° C. (visual observation)
Type: physicochemical
Settings: organic solvent or mixture, thermodynamic from solid, SL3 Ethanol, 50° C.
Measurement Kind: solubility at 10 min

Challenge: Entry Nc1nc(=O)n(-c2ccccc2Cl)c2nc(C(F)(F)F)ccc12 [solid state Form V] : reported solubility at 10 min = ?
Response given: 15 to 17 mg/mL

====

Assay: Equilibrium solubility in FeSSIF and FaSSIF
Format: physicochemical
Conditions: FeSSIF, 37 °C, pH 5, fessif, thermodynamic from solid, pH 5.0, 37° C., target concentration 1 mg/mL, HPLC method 1 or 2 (footnote)
Measurement Kind: solubility at 24 h
Record the result as number plus unit.

Challenge: Entry Nc1nc(=O)n(-c2ccccc2Cl)c2nc(C(F)(F)F)ccc12 [Form A] : reported solubility at 24 h = ?
Response given: 240 µg/mL

====

Test: Equilibrium solubility in FeSSIF and FaSSIF
Assay type: physicochemical
Conditions: 37 °C, pH 5, fessif, thermodynamic from solid, FeSSIF, pH 5.0, 37° C., target concentration 1 mg/mL, HPLC method 1 or 2 (footnote)
Measurement Kind: solubility at 24 h (µg/mL)
Return type: number; implicit unit µg/mL.

Challenge: Entry Nc1nc(=O)n(-c2ccccc2Cl)c2nc(C(F)(F)F)ccc12 [Form E] : reported solubility at 24 h = ?
Response given: 140

====

Reported values of final pH for individual entries
Assay: Equilibrium solubility in FeSSIF and FaSSIF
Assay type: physicochemical
Conditions: FeSSIF, pH 5.0, 37° C., 24 hours
Could you respond with only the numeric value?

Below: 2 compounds and their reported final pH.
{"Compound": "Nc1nc(=O)n(-c2ccccc2Cl)c2nc(C(F)(F)F)ccc12 [Form T]", "final pH": 5.0}
{"Compound": "Nc1nc(=O)n(-c2ccccc2Cl)c2nc(C(F)(F)F)ccc12 [Form D]", "final pH": 5.2}

Challenge: Entry Nc1nc(=O)n(-c2ccccc2Cl)c2nc(C(F)(F)F)ccc12 [Form C] : reported final pH = ?
Response given: 5.2

====

Experiment: Bulk stability of crystalline forms
Assay type: physicochemical
Design: key: Color A: All No change of color
Details: Solid state, 25° C./92% RH, open container, 1 week
Measurement Kind: Color

Below: 4 molecules and their reported Color.
{"Molecule": "Nc1nc(=O)n(-c2ccccc2Cl)c2nc(C(F)(F)F)ccc12 [Form D]", "Measurement Kind": "Color", "Result": "A"}
{"Molecule": "Nc1nc(=O)n(-c2ccccc2Cl)c2nc(C(F)(F)F)ccc12 [substantially amorphous form]", "Measurement Kind": "Color", "Result": "A"}
{"Molecule": "Nc1nc(=O)n(-c2ccccc2Cl)c2nc(C(F)(F)F)ccc12 [solid state Form V]", "Measurement Kind": "Color", "Result": "A"}
{"Molecule": "Nc1nc(=O)n(-c2ccccc2Cl)c2nc(C(F)(F)F)ccc12 [Form A]", "Measurement Kind": "Color", "Result": "A"}

Challenge: Entry Nc1nc(=O)n(-c2ccccc2Cl)c2nc(C(F)(F)F)ccc12 [Form T] : reported Color = ?
Response given: A
